Origin of measurements: the Deep4Chem optical property database

PROCEDURE_TEXT: solvent given as SMILES
EXPERIMENTAL_CONDITIONS: in ClC(Cl)Cl
OBSERVED_PROPERTY: emission maximum (nm)
Output spec: scalar in nm, unitless text.

# query: emission maximum of entry CCOc1cc2c(cc1/C=C/C1=CC(=C(C#N)C#N)CC(C)(C)C1)c1ccccc1n2CC
608

# query: emission maximum of entry CCCCCCCCC1(CCCCCCCC)c2cc(-c3ccc(C#N)cc3)ccc2-c2ccc(-c3ccc(C#N)cc3)cc21
385

# query: emission maximum of entry O=C1c2ccccc2-c2cc3ccccc3c(=O)n21
445

# query: emission maximum of entry CCCCCCCCCCN1C(=O)c2cc(NCCCOCCO)c3c4c(cc(NCCCOCCO)c(c24)C1=O)C(=O)N(CCCCCCCCCC)C3=O
640

# query: emission maximum of entry Cc1ccc(/C2=c3\cc/c(o3)=C(\c3ccc(C)cc3)c3ccc([nH]3)-c3ccc4n3[P-](=O)(=O)[N+]3=C(C=CC3=C4c3cccs3)c3ccc2[nH]3)cc1
736

# query: emission maximum of entry F[B-]1(F)OC(c2ccccc2)=Cc2c3ccccc3cc[n+]21
463.2

# query: emission maximum of entry Cc1ccc(C(=O)/N=c2\oc3cccc4c5c(-c6ccccc6)oc6cccc(c(c2-c2ccccc2)c34)c65)cc1
535

# query: emission maximum of entry Cc1ccc(/C(C#N)=C/c2cc(/C=C(\C#N)c3ccc(C)cc3)c(-c3ccc(N(c4ccccc4)c4ccccc4)cc3)cc2-c2ccc(N(c3ccccc3)c3ccccc3)cc2)cc1
517

* * *

PROCEDURE_TEXT: solvent given as SMILES
EXPERIMENTAL_CONDITIONS: in CO
I'd appreciate it if you could supply emission maximum values for the items below.
Output spec: scalar in nm, unitless text.

# query: emission maximum of entry Clc1ccc(/C=C/c2ccc(-c3nc4c5cccnc5c5ncccc5c4[nH]3)cc2)cc1
473

# query: emission maximum of entry F[B-]1(F)n2ccnc2-c2cccc[n+]21
362

# query: emission maximum of entry O=c1[nH]c(=O)n([C@@H]2O[C@H](CO)[C@@H](O)[C@H]2O)c2ccsc12
350

* * *

PROCEDURE_TEXT: solvent given as SMILES
EXPERIMENTAL_CONDITIONS: in CO
Rule: measured emission maximum below 500 nm gets Satisfied; anything equal to or greater than 500 nm gets Not satisfied.

API: query returns whether the molecule falls strictly under 500 nm in emission maximum. Query: COc1nc(Nc2ccc3ccc4cccc5ccc2c3c45)nc(OC)n1
Satisfied

API: query returns whether the molecule falls strictly under 500 nm in emission maximum. Query: O=C(O)C1=C/C(=C/C=[N+]2/c3cc(O)c(C[C@@H]4O[C@H](CO)[C@@H](O)C(O)[C@H]4O)cc3C[C@H]2C(=O)O)C[C@@H](C(=O)O)N1 (some centres not stated)
Not satisfied

API: query returns whether the molecule falls strictly under 500 nm in emission maximum. Query: CN1/C(=C/C=C(/C=C/c2sc3ccccc3[n+]2C)c2ccccc2)Sc2ccccc21
Not satisfied

API: query returns whether the molecule falls strictly under 500 nm in emission maximum. Query: Oc1ccccc1/N=C/c1ccccc1Oc1ccccc1
Satisfied

API: query returns whether the molecule falls strictly under 500 nm in emission maximum. Query: CCOC(=O)/C(C#N)=C\c1ccc2c(c1)c1ccccc1n2-c1ccc(OC)cc1
Not satisfied

API: query returns whether the molecule falls strictly under 500 nm in emission maximum. Query: CC1(C)CC(=O)C2=C(C1)Oc1ccc3cc(O)ccc3c1C2c1ccccn1 (configuration not stated)
Satisfied

API: query returns whether the molecule falls strictly under 500 nm in emission maximum. Query: N#Cc1ccc(/C=C/C=C/C2=NC3C(=O)NC(N)=NC3N2[C@H]2C[C@H](O)[C@@H](CO)O2)cc1 (some centres not stated)
Not satisfied

API: query returns whether the molecule falls strictly under 500 nm in emission maximum. Query: COCCOCCOc1cc(C=O)c(OCCOCCOC)cc1C=O
Satisfied

API: query returns whether the molecule falls strictly under 500 nm in emission maximum. Query: O=S(=O)(/N=c1\oc2cccc3c4c(-c5ccccc5)oc5cccc(c(c1-c1ccccc1)c23)c54)C(F)(F)F
Not satisfied

API: query returns whether the molecule falls strictly under 500 nm in emission maximum. Query: COC(=O)c1ccc(C2=C3C=CC(C)=[N+]3[B-](F)(F)n3c(C)ccc32)cc1
Not satisfied

API: query returns whether the molecule falls strictly under 500 nm in emission maximum. Query: CN(c1ccccc1)c1ccc(/C=C2\C(=O)c3ccccc3S2(=O)=O)cc1
Not satisfied

API: query returns whether the molecule falls strictly under 500 nm in emission maximum. Query: CC(C)CCCN1c2ccccc2CCc2ccccc21
Satisfied

API: query returns whether the molecule falls strictly under 500 nm in emission maximum. Query: CC1(C)C(/C=C/C=C/C=C/C=C2/N(CCCCCC(=O)O)c3ccc(S(=O)(=O)[O-])cc3C2(C)C)=[N+](CCCCCC(=O)O)c2ccc(S(=O)(=O)[O-])cc21
Not satisfied

API: query returns whether the molecule falls strictly under 500 nm in emission maximum. Query: COCCOCCOc1ccc(OCCOCCOC)c(C=O)c1
Satisfied

API: query returns whether the molecule falls strictly under 500 nm in emission maximum. Query: CC(=O)OCCOCCN1C(=O)c2cc(NCCOCCO)c3c4c(cc(NCCOCCO)c(c24)C1=O)C(=O)N(CCOCCOC(C)=O)C3=O
Not satisfied
